molecular target: P2X purinoceptor 4 (Rattus norvegicus, UniProt P51577); experiment: Inhibition of inward ion current elicited by ATP at rat P2X4 receptor (mutant type); assay type: functional
Sequence (P51577 whole entry, looked up): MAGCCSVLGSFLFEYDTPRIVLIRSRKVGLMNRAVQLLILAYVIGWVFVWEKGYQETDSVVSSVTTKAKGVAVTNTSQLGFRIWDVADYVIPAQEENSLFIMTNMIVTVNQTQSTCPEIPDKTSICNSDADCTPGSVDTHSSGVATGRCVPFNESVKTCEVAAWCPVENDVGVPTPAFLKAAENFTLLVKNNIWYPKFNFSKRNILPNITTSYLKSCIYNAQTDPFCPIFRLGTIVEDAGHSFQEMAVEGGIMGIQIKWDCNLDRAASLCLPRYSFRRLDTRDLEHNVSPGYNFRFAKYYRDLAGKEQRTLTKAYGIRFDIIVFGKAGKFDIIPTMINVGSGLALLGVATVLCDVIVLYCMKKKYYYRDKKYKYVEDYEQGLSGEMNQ
measurement-type: pIC50
Answers are plain numbers, as −log10 of the molar value.

Item "Cc1nc(/N=N/c2ccc(S(=O)(=O)O)cc2S(=O)(=O)O)c(COP(=O)(O)O)c(C=O)c1O" has what recorded pIC50?
5.59

###

biological target: UniProt:P49652; assay: Inhibition of 10 nM 2-MeS-ADP-stimulated phospholipase C in turkey erythrocyte membrane; assay type: functional, cell membranes
Sequence (P49652 whole entry): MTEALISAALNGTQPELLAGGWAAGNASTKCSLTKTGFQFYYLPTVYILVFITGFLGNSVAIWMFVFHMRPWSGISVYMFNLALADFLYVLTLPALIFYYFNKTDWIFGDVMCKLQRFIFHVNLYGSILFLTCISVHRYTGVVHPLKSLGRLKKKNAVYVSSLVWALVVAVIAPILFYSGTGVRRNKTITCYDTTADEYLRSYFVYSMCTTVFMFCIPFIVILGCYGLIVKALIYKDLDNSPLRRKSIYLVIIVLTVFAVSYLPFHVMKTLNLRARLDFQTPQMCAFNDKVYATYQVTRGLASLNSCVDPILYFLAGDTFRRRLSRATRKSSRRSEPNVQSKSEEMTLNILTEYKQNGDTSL
measurement-type: pIC50
Answers are plain numbers, as −log10 of the molar value.

// pIC50 lookup, key: "Cc1nc(/N=N/c2ccccc2)c(COP(=O)(O)O)c(C=O)c1O"
4.27
